Assay: Half life in rat plasma by HPLC analysis
Format: ADME, cell-free
Metric Name: half-life (min)
One number for each entry, in min.

input: For the compound "CN([11CH3])c1ccc(-c2cc(=O)c3ccc(O)c(O)c3o2)cc1" , what half-life is on record?
output: 10

----------
Assay: Drug degradation in rat plasma after 90 mins by HPLC analysis
Assay type: ADME, cell-free
Settings: read-out: Drug degradation
Metric Name: metabolised at 1.5 h (%)
Numbers only, in %.

input: For the compound "O=c1cc(-c2ccc([18F])cc2)oc2c(O)c(O)ccc12" , what metabolised at 1.5 h is on record?
output: 10
